Target Or Test System: T1, Human Siglec-15, His Tag (human Siglec-15 full-length extracellular domain linked with His tag) (human, UniProt Q6ZMC9 20-263)
T1 construct: Bought from ACROBiosystems; also called Siglec-15 protein; SG5-H52H3
T1 sequence: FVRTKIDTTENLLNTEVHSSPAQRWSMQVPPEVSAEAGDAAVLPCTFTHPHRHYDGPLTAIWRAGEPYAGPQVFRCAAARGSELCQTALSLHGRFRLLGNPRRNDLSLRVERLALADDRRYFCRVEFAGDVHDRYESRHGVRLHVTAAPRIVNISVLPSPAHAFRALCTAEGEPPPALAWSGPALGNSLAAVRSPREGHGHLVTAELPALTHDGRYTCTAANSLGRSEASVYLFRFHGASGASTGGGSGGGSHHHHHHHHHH
Protocol Description: Octet BLI epitope binning, Siglec-15 His on HIS1K sensor; competitor 21F6C6
Result Type: cross-competition score (%)
Give the quantity in %, number only.

Req: Fill blank: measured cross-competition score of the binder 255C12B10 chimeric antibody (antibody, V domains shown, Mouse variable regions combined with human IgG1 (N297A) constant regions) VH: EVQLQQSGPELVKPGASVKMSCKASGYTFTGYNMNWVKQSHGKSLEWIGYINPNNGGTRYNQKFKGKATLTINKSSSTAYMELRSLTSEDSAVYYCARDYGIDYWGQGTTLTVSS VL: EIQMTQSPSSMSASLGDRITITCQATQDIVKNLNWYQQKPGKPPSFLIYYATELAEGVPSRFSGSGSGSDYSLTISNLESEDFADYYCLQFYEFPYTFGGGTKLEIK is ____.
Resp: 20.4
